target: hP2X2/3H (Homo sapiens, UniProt P56373+Q9UBL9); construct: expressed in transfected cells; host or cells: e.g. HEK293 or 1321N1; experiment: Calcium uptake assay (P2X antagonist assay), P2X2/3 heteromer; type: cell-based; conditions: Ca influx (calcium uptake assay), hP2X2/3H; read-out: IC50 hP2X2/3H
Sequence (Q9UBL9 whole entry): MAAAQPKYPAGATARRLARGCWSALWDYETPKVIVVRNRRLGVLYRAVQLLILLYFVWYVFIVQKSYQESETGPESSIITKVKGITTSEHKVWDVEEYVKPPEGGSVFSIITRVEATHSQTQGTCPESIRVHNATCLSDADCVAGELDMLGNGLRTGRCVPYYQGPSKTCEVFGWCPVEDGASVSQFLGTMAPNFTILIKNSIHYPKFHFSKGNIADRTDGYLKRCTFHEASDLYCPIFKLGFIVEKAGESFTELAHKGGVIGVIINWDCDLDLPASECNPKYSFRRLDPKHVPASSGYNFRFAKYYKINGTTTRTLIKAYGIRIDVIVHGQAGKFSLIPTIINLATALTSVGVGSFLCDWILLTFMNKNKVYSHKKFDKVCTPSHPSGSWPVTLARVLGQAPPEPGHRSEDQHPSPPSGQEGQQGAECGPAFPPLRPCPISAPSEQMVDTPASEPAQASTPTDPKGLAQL
Sequence (P56373 whole entry): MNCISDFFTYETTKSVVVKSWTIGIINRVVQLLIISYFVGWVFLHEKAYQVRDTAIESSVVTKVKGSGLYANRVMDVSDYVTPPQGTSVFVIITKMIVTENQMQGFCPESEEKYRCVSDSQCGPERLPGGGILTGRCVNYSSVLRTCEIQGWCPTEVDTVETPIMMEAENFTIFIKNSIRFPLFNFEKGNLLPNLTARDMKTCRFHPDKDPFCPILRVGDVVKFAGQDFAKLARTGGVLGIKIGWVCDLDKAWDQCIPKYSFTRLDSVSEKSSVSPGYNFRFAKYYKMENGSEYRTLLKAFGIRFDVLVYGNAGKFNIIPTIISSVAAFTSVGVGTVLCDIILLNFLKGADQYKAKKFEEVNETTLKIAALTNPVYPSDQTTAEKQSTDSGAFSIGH
pIC50: −log10 of the molar value.
Please provide measured pIC50 for the entries that follow.

Prompt line: I would be grateful if you could share the reported pIC50 for Cc1ccc(-c2cc(OCC3CCCO3)cc(C(=O)N[C@H](C)c3ccc(C)nc3)c2)nc1 (stereo partly shown) .
Response line: > 7.00

Prompt line: Record request: pIC50 value, item Cc1ccc(-c2cc(OCC3CCOC3)cc(C(=O)N[C@H](C)c3ccc(C)nc3)c2)nc1 (stereo partly shown)
Response line: > 7.00

Prompt line: What value of pIC50 has been reported for the following compound? Cc1ccc(-c2cc(CO)cc(C(=O)N[C@H](C)c3cnc(C)nc3)c2)c(C#N)c1
Response line: 6.30 to 7.00

Prompt line: Looking for the measured pIC50 of Cc1ccc(-c2cc(Oc3nc(Cl)cs3)cc(C(=O)N[C@H](C)c3ccc(C)nc3)c2)c(C#N)c1 , can you help?
Response line: > 7.00

Prompt line: Reported pIC50, compound Cc1ccc(-c2cc(Oc3nccs3)cc(C(=O)N[C@H](C)c3cnc(C)nc3)c2)c(C#N)c1 : ____
Response line: > 7.00

Prompt line: Would you kindly share the measured pIC50 for COC1CCN(CC(O)c2cc(C(=O)NCc3ccc(C)nc3)cc(-c3ccc(C)cc3)c2)CC1 (stereo not shown) ?
Response line: 6.30 to 7.00

Prompt line: Could you tell me which pIC50 is on file for Cc1ccc(-c2cc(C(=O)N[C@H](C)c3ccc(C)nc3)cc(C(O)c3ccccn3)c2)nc1 (stereo partly shown) ?
Response line: > 7.00

Prompt line: Please give the measured pIC50 for this compound: Cc1ccc(-c2cc(C(=O)N[C@H](C)c3ccc(C)nc3)cc(C(O)c3ccccn3)c2)cc1 (stereo partly shown)
Response line: > 7.00

Prompt line: For the compound Cc1ccc(-c2cc(C(=O)NCc3ccc4c(c3)S(=O)(=O)CC4)cc(S(C)(=O)=O)c2)nc1 , what pIC50 is on record?
Response line: 6.30 to 7.00

Prompt line: Recorded pIC50 for Cc1ccc(-c2cc(C(=O)N[C@@H](C)CO)cc(S(=O)(=O)C3CCCC3)c2)cc1 , please?
Response line: < 6.00

Prompt line: Which pIC50 is listed for Cc1ccc(-c2cc(OC3CCOC3)cc(C(=O)N[C@H](C)c3cnc(C)nc3)c2)nc1 (stereo partly shown) ?
Response line: 6.30 to 7.00

Prompt line: I would be grateful if you could share the reported pIC50 for Cc1ccc(-c2cc(C(=O)NCc3ccc(Cl)cc3Cl)cc(S(C)(=O)=O)c2)nc1 .
Response line: 6.30 to 7.00

Prompt line: Dear colleague, I am looking for the recorded pIC50 of the following compound: Cc1ccc(-c2cc(Oc3nccs3)cc(C(=O)N[C@H](C)c3ccc(C)nc3)c2)c(C#N)c1
Response line: > 7.00

Prompt line: Bench note: what pIC50 did Cc1ccc(-c2cc(OCC(O)CO)cc(C(=O)N[C@H](C)c3ccc(C)nc3)c2)c(C#N)c1 (stereo partly shown) show?
Response line: 6.30 to 7.00

Prompt line: State the recorded pIC50 for this entry: Cc1ccc(CNC(=O)c2cc(C(=O)N3CCCC3)cc(-c3ccc(Br)cc3)c2)cn1
Response line: > 7.00

Prompt line: Which pIC50 value belongs to Cc1ccc(-c2cc(OCC3COCCO3)cc(C(=O)N[C@H](C)c3ccc(C)nc3)c2)cc1 (stereo partly shown) ?
Response line: 6.30 to 7.00
